- system: CXorf57 (UniProt Q6NSI4)
- Sequence (Q6NSI4 whole entry): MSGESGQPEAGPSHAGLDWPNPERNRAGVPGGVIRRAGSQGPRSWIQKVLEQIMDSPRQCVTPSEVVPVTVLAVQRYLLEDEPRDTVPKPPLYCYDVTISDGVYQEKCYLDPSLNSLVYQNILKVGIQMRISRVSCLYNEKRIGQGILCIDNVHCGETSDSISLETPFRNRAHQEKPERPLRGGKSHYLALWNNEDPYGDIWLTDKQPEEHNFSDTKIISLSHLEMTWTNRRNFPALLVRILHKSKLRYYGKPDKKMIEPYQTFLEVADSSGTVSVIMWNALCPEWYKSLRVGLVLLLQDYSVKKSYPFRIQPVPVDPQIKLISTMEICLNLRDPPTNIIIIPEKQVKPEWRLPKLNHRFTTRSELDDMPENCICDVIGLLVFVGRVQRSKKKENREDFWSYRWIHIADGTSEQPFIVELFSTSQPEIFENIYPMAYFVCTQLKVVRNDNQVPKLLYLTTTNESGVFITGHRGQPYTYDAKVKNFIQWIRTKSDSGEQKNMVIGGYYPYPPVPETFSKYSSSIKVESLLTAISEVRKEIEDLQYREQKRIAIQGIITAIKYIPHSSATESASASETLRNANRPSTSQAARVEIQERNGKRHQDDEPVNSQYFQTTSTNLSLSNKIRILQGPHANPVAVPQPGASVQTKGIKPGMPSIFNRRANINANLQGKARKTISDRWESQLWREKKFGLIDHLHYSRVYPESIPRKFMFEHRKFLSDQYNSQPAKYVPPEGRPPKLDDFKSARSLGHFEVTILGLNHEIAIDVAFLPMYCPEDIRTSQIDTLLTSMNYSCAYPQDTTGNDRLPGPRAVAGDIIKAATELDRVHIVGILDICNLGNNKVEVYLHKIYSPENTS
- assay-protocol: EC50 of free RNA motif oligo competing protein binding to immobilised probe
assay-endpoint: EC50 (µM)
Write down the numeric answer in µM and omit the unit.

[ask] Identify measured EC50 associated with AAUAAA
[reply] 3.56

====

- system: ZCRB1 (UniProt Q8TBF4)
- Sequence: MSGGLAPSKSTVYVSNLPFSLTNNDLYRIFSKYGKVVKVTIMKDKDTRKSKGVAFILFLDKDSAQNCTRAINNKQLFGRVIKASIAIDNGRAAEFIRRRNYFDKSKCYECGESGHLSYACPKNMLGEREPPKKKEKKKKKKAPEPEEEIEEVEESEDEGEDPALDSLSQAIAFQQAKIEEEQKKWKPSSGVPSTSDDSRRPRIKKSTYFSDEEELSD
- assay-protocol: EC50 of free RNA motif oligo competing protein binding to immobilised probe
assay-endpoint: EC50 (µM)
Write down the numeric answer in µM and omit the unit.

[ask] Identify measured EC50 associated with UAUUUAU
[reply] 3.8

====

- system: RPS14 (UniProt P62263)
- assay-protocol: Kd (EC50 corrected by depletion factor)
assay-endpoint: pKd
As a rule, pKd stands for the negative log10 of the concentration, concentration in M.

[ask] Identify measured pKd associated with CUGUCCU
[reply] 6.90

====

- system: HNRNPK (UniProt P61978)
- assay-protocol: EC50 of free RNA motif oligo competing protein binding to immobilised probe
assay-endpoint: EC50 (µM)
Write down the numeric answer in µM and omit the unit.

[ask] Identify measured EC50 associated with CUGUCCU
[reply] 3.04

====

- system: CWF19L1 (UniProt Q69YN2)
- Sequence: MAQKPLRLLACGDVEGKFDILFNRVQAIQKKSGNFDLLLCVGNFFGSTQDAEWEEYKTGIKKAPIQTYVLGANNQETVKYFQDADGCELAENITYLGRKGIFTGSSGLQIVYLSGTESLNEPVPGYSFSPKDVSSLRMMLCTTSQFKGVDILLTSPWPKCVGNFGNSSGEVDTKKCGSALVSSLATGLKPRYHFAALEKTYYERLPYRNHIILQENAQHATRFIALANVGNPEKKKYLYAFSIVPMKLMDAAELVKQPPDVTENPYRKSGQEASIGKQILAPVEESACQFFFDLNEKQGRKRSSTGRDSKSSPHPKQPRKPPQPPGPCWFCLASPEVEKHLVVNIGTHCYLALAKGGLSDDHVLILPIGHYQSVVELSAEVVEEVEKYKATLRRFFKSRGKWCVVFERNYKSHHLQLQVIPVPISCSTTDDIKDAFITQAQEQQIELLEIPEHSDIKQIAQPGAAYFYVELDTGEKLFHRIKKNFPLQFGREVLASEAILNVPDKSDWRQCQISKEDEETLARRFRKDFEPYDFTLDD
- assay-protocol: EC50 of free RNA motif oligo competing protein binding to immobilised probe
assay-endpoint: EC50 (µM)
Write down the numeric answer in µM and omit the unit.

[ask] Identify measured EC50 associated with UAUUUAU
[reply] 3.16

====

- system: ZFP36L2 (UniProt P47974)
- Sequence: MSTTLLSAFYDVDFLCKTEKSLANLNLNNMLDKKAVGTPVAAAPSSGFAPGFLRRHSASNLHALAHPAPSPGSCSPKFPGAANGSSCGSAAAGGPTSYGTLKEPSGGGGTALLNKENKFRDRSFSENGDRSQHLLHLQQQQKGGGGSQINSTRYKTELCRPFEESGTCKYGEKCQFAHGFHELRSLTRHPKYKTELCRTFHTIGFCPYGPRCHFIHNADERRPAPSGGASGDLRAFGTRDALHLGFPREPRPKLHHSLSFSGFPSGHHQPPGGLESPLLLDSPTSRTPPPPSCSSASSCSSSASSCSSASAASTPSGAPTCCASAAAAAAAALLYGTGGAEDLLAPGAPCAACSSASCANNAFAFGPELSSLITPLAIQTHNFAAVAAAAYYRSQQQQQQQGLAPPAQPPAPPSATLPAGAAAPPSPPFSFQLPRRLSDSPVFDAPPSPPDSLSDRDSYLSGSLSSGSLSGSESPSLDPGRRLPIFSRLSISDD
- assay-protocol: Kd (EC50 corrected by depletion factor)
Examples of sequences with documented Kd follow.
Write down the numeric answer in nM and omit the unit.

UAUUUAU | 11.1

With those in mind, consider the next sequence.
[ask] # return Kd of AAUAAA (system: ZFP36L2 (UniProt P47974))
[reply] 357

====

- system: HNRNPD (UniProt Q14103)
- Sequence: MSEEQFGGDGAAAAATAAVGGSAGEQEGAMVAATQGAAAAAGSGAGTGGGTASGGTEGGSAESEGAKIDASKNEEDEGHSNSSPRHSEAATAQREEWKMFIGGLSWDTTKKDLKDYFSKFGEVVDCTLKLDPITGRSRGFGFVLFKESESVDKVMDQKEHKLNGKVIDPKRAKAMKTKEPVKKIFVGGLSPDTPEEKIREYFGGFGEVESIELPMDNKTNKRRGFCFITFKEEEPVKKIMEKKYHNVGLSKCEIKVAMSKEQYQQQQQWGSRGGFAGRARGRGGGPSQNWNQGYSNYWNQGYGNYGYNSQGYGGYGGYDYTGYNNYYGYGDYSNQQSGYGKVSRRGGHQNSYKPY
- assay-protocol: EC50 of free RNA motif oligo competing protein binding to immobilised probe
assay-endpoint: pEC50
As a rule, pEC50 stands for the negative log10 of the concentration, concentration in M.

AAUAAA | 5.19

With those in mind, consider the next sequence.
[ask] Identify measured pEC50 associated with UAUUUAU
[reply] 6.18

====

- system: DAP3 (UniProt P51398)
- assay-protocol: Kd (EC50 corrected by depletion factor)
assay-endpoint: pKd
As a rule, pKd stands for the negative log10 of the concentration, concentration in M.

[ask] Identify measured pKd associated with UAUUUAU
[reply] 7.43

====

- system: UPF1 (UniProt Q92900)
- Sequence: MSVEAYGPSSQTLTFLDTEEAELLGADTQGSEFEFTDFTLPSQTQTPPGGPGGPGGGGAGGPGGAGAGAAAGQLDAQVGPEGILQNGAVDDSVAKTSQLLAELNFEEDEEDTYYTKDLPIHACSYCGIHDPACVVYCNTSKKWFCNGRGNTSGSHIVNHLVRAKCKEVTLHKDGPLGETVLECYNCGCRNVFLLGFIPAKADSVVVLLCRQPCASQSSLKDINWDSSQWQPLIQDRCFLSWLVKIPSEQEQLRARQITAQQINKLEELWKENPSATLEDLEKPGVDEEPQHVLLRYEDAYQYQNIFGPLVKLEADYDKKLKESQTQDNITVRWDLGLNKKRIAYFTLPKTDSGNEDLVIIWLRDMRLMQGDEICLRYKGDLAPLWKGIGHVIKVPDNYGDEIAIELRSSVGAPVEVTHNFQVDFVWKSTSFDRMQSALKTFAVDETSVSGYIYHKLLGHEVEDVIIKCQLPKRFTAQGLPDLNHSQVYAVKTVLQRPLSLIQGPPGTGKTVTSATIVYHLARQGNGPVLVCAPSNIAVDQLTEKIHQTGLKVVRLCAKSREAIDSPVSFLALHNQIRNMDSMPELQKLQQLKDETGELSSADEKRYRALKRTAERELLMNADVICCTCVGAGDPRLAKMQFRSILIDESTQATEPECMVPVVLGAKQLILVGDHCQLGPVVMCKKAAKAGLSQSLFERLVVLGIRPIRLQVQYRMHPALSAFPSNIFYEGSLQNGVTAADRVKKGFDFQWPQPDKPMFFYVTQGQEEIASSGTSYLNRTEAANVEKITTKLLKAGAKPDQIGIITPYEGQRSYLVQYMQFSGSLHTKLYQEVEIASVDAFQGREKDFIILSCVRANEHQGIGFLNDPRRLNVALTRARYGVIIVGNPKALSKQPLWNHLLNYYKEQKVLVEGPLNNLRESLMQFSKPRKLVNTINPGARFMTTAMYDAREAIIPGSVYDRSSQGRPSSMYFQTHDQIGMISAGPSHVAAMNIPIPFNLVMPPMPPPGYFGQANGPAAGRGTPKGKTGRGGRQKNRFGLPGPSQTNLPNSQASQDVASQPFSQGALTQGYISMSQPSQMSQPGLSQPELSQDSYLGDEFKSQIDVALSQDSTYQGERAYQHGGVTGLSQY
- assay-protocol: Kd (EC50 corrected by depletion factor)
assay-endpoint: pKd
As a rule, pKd stands for the negative log10 of the concentration, concentration in M.

[ask] Identify measured pKd associated with AAUAAA
[reply] 5.58

====

- system: AQR (UniProt O60306)
- Sequence: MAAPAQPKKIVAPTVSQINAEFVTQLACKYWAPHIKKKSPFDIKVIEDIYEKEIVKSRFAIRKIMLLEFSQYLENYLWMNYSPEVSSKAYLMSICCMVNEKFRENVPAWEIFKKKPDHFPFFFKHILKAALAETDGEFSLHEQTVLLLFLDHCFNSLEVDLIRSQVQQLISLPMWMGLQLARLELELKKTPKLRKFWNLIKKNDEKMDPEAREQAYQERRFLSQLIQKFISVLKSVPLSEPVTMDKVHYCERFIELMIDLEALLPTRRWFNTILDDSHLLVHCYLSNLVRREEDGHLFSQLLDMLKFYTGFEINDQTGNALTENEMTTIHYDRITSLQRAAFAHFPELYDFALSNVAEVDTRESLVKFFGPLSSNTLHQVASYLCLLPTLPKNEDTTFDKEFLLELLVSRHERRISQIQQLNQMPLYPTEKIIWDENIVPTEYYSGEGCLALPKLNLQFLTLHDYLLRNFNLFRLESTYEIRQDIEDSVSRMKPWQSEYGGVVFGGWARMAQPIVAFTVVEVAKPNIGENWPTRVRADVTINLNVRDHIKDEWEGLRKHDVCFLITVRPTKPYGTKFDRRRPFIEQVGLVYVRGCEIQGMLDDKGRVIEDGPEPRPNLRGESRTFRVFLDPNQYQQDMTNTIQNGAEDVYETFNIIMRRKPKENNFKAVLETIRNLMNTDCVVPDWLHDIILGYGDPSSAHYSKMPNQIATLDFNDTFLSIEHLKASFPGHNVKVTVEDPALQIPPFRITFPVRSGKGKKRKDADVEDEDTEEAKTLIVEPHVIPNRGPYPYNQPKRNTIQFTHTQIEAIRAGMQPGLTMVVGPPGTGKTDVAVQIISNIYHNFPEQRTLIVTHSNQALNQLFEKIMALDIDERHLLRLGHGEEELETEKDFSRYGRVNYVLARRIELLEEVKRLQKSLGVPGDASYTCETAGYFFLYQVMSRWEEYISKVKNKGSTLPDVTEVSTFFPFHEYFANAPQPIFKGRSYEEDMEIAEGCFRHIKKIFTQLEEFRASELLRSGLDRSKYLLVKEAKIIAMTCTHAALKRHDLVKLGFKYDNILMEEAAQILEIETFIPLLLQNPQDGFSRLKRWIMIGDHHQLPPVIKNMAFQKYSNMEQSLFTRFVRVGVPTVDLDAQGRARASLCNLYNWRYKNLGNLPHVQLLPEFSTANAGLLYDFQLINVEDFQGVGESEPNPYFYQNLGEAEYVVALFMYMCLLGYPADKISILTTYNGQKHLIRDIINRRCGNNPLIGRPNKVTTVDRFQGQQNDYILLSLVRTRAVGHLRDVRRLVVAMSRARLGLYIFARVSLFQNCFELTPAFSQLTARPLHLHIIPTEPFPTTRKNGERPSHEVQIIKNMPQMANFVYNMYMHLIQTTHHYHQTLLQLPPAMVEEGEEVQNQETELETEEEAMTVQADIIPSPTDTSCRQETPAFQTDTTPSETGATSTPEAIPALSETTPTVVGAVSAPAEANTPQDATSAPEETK
- assay-protocol: EC50 of free RNA motif oligo competing protein binding to immobilised probe
Examples of sequences with documented EC50 follow.
Write down the numeric answer in nM and omit the unit.

UAUUUAU | 706

With those in mind, consider the next sequence.
[ask] Identify measured EC50 associated with AAUAAA
[reply] 877
